Each entry below lists one item and its recorded koff value.
target: Adeno-associated virus serotype 9 (AAV9) (AAV9); experiment: SPR, AAV amine-coupled to CM5 chip, nanobody 1-50 nM as analyte
reported.metric: koff (s⁻¹)

{"binder": "A4-L1 (A4-017 with a C-terminal IgA hinge followed by a 6xHis tag) (VHH) VHH: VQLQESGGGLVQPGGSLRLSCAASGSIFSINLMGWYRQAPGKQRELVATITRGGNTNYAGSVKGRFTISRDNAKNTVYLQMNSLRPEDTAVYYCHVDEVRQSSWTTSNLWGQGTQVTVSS", "result.units": "s⁻¹", "experimental.value": 0.00011}
{"binder": "A4-M1 (A4-017 with an N-terminal amino acid sequence MetAlaGln) (VHH) VHH: QVQLQESGGGLVQPGGSLRLSCAASGSIFSINLMGWYRQAPGKQRELVATITRGGNTNYAGSVKGRFTISRDNAKNTVYLQMNSLRPEDTAVYYCHVDEVRQSSWTTSNLWGQGTQVTVSS", "result.units": "s⁻¹", "experimental.value": 0.00015}
